Could you please report measured DC50 for the items listed next?
Biological target: P300 (Homo sapiens, UniProt Q09472)
Construct: endogenous in cells; host or cells: 22Rv1
Sequence (Q09472 whole entry): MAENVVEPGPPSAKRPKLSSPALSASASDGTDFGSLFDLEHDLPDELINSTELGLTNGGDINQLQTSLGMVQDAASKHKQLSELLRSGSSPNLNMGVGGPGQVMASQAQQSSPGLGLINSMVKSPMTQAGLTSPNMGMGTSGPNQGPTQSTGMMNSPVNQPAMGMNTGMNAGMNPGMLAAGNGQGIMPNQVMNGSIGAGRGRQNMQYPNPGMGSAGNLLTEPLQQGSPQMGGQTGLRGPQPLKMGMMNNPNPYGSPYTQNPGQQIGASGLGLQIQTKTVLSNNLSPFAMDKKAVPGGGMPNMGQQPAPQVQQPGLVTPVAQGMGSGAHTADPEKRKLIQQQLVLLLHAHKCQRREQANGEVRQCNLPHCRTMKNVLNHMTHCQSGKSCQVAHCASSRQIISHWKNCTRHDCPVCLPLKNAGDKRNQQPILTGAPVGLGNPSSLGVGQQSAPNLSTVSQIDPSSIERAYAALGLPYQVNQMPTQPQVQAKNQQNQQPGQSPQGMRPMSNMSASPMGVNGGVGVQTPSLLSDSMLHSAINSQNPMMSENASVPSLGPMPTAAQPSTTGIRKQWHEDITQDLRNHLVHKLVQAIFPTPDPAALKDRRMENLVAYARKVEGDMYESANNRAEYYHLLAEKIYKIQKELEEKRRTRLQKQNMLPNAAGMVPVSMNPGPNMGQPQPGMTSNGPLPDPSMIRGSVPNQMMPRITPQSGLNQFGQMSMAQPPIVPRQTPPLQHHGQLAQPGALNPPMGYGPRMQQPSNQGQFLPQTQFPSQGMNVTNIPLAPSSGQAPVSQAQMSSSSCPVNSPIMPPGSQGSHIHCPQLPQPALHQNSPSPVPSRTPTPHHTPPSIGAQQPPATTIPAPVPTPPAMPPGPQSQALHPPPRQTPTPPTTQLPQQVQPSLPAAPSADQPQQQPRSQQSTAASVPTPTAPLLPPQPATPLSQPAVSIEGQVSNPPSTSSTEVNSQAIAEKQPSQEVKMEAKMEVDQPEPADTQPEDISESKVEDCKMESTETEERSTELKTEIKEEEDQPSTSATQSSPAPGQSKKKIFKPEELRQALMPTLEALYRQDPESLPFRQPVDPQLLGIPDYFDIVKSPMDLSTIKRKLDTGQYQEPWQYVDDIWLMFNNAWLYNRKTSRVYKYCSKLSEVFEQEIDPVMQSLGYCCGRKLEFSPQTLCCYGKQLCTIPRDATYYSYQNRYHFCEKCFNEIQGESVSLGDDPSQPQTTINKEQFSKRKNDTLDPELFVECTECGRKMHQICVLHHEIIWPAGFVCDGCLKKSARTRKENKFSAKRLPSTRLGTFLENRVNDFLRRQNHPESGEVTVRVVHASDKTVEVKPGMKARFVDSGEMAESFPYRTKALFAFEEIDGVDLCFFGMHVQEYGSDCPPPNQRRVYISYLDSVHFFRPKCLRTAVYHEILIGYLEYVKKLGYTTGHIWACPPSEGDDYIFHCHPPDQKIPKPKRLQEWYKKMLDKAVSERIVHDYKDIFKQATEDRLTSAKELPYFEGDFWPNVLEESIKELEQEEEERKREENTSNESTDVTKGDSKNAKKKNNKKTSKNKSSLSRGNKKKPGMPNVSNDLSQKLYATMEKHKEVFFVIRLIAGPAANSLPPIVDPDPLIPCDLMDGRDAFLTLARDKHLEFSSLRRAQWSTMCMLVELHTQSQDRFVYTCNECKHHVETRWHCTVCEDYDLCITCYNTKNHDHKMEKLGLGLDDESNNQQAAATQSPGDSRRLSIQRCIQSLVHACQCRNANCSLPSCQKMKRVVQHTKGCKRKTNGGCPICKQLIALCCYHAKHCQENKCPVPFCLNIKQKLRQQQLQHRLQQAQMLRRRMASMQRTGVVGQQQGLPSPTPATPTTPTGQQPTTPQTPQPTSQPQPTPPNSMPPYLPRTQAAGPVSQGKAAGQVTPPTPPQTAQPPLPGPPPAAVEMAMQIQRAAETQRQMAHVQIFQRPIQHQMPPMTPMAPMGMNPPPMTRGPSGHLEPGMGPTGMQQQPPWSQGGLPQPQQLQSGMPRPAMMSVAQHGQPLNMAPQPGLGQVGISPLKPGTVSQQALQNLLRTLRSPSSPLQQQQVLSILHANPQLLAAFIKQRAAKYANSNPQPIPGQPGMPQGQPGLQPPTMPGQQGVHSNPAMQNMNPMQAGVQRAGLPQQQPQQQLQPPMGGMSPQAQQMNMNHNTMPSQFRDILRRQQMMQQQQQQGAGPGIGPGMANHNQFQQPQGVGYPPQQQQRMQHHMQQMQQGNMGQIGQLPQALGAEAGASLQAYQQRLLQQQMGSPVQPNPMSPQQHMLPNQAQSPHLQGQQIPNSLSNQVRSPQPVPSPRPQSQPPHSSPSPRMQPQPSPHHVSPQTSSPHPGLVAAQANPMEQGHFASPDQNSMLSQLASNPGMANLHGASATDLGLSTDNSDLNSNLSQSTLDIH
Experiment: P300 degradation, western blot, 22Rv1
Assay type: cell-based
Conditions: 22Rv1, 5 h

**Query** So what does the record say about DC50 for CC(=O)N1CCc2c(c(N3CCCc4cc(-c5cnn(C)c5)c(C(F)F)cc43)nn2C2CCC(N3CCC4(CC3)COc3c4ccc4c3CN([C@H]3CCC(=O)NC3=O)C4=O)CC2)C1 (stereo partly drawn) [CPD-003] ?
**Result** < 0.1 nM

**Query** Query CC(=O)N1CCc2c(c(N3CCCc4cc(-c5cnn(C)c5)c(C(F)F)cc43)nn2[C@H]2CC[C@H](C(=O)N3CCC4(CC3)COc3c4ccc4c3CN([C@H]3CCC(=O)NC3=O)C4=O)CC2)C1 [CPD-005] next
**Result** < 0.1 nM

**Query** Query CC(=O)N1CCc2c(c(N3CCCc4cc(-c5cnn(C)c5)c(C(F)F)cc43)nn2C2CCN(CC(=O)N3CCC4(CC3)COc3c4ccc4c3CN([C@H]3CCC(=O)NC3=O)C4=O)CC2)C1 [CPD-001] next
**Result** 0.1 to 1 nM

###

Could you please report measured DC50 for the items listed next?
Biological target: STAT3 (Homo sapiens)
Construct: host or cells: HeLa (STAT3-HiBiT CRISPR knock-in clone)
Sequence (P40763 whole entry): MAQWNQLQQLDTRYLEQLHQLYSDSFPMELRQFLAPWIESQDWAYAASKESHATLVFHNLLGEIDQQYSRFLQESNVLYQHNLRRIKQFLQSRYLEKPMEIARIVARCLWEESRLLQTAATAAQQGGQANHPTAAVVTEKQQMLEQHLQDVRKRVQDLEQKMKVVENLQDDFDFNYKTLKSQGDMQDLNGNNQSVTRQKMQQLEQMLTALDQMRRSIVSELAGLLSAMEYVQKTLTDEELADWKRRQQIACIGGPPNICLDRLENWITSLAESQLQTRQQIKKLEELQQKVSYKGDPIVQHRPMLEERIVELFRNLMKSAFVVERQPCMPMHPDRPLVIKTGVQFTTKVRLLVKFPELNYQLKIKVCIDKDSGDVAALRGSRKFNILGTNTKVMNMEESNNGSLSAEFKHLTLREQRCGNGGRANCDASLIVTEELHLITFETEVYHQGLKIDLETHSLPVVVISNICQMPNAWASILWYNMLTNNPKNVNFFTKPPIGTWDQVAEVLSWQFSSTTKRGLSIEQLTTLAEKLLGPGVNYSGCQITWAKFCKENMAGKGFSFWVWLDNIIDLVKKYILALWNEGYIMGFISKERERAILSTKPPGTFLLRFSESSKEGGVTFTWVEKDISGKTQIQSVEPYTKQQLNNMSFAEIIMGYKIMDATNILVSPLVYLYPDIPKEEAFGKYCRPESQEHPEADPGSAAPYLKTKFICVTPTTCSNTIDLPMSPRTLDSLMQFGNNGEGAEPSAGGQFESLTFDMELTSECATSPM
Assay: STAT3 degradation HiBiT assay (STAT3-HIBIT KI HeLa)
Format: cell-based
Details: STAT3-HIBIT KI HeLa cells, 24 hours

**Query** So what does the record say about DC50 for CC(C)S(=O)(=O)c1ccc(CNC(=O)[C@H](CCC(N)=O)NC(=O)[C@@H]2CC[C@@H]3CCN(C(=O)CCCCN4CCC5(CC4)COc4c5ccc5c4CN([C@H]4CCC(=O)NC4=O)C5=O)C[C@H](NC(=O)c4cc5cc(C(=O)P(=O)(O)O)ccc5[nH]4)C(=O)N32)cc1 [STD 86] ?
**Result** 0.1 to 1 µM

**Query** Query CC(C)S(=O)(=O)c1ccc(CNC(=O)[C@H](CCC(N)=O)NC(=O)[C@@H]2CC[C@@H]3CCN(C(=O)CCCCN4CCC5(CC4)COc4c5ccc5c4CN([C@H]4CCC(=O)NC4=O)C5=O)C[C@H](NC(=O)c4cc5cc(C(F)(F)P(=O)(O)O)ccc5s4)C(=O)N32)cc1 [STD 80] next
**Result** 0.1 to 1 µM

**Query** Query CCS(=O)(=O)c1ccc(CNC(=O)[C@H](CCC(N)=O)NC(=O)[C@@H]2CC[C@@H]3CCN(C(=O)CCCCN4CCC5(CC4)COc4c5ccc5c4CN([C@H]4CCC(=O)NC4=O)C5=O)C[C@H](NC(=O)c4cc5cc(C(=O)P(=O)(O)O)ccc5[nH]4)C(=O)N32)cc1 [STD 85] next
**Result** 0.1 to 1 µM

**Query** Query CS(=O)(=O)c1cccc(OC[C@H](CCC(N)=O)NC(=O)[C@@H]2CC[C@@H]3CCN(C(=O)CCN4CCC5(CC4)COc4c5ccc5c4CN([C@H]4CCC(=O)NC4=O)C5=O)C[C@H](NC(=O)c4cc5cc(C(F)(F)P(=O)(O)O)ccc5s4)C(=O)N32)c1 [STD 69] next
**Result** 1 to 10 µM

###

Molecular target: CRBN/DDB1 (Homo sapiens, UniProt Q96SW2)
Sequence (Q96SW2 whole entry): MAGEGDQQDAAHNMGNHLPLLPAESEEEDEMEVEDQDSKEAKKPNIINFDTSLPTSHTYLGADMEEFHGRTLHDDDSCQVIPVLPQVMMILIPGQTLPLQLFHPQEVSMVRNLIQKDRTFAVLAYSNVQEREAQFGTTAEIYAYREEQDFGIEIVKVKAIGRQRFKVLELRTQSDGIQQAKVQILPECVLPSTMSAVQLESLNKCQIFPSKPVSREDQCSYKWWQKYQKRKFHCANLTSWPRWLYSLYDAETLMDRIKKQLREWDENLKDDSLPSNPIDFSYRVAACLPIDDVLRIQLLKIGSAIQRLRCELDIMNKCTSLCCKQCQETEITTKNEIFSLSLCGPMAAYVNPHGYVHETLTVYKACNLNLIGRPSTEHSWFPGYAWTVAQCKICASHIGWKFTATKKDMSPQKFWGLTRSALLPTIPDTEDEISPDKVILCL
Sequence (Q16531 whole entry, further chain): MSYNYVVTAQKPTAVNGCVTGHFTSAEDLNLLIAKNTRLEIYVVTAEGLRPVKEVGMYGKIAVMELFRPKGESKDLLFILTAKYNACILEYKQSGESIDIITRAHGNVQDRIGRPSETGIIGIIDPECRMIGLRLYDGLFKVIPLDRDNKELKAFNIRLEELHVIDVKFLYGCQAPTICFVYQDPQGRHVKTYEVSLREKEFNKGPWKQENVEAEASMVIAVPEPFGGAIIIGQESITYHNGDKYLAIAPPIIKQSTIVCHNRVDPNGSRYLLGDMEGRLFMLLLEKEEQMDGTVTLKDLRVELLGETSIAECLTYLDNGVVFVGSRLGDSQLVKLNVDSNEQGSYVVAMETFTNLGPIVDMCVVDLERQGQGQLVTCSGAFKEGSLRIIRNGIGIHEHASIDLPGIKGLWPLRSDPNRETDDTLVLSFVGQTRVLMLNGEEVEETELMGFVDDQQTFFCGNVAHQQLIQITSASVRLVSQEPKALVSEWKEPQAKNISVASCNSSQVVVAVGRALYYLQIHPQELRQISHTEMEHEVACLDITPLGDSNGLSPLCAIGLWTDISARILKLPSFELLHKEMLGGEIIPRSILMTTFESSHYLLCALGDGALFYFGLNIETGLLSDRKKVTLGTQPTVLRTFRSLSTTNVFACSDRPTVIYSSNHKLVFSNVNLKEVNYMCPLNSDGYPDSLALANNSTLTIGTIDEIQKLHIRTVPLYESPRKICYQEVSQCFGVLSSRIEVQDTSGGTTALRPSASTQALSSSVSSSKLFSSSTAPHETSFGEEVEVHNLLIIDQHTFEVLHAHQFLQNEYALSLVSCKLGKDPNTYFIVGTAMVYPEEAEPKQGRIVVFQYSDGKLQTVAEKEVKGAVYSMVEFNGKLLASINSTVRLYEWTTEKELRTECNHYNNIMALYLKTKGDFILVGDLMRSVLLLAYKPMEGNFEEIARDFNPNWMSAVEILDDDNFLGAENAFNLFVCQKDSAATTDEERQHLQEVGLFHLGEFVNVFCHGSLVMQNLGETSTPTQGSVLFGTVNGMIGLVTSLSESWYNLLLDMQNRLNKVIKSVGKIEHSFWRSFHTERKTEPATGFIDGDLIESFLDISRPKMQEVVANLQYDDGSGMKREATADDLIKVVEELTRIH
Test: biochemical
Could you please report measured IC50 for the items listed next?
# number only, unit µM dropped from output

**Query** So what does the record say about IC50 for CC(=O)N1CCC2(CC1)COc1cc3c(cc12)CN(C1CCC(=O)NC1=O)C3=O (stereo not shown) ?
**Result** 3.8

**Query** Query CN1CCC2(CC1)OCCc1cc3c(cc12)CN(C1CCC(=O)NC1=O)C3=O (stereo not shown) next
**Result** 2.2

**Query** Query `COc1cc2c(c3c1C(=O)N([C@@H]1CCC(=O)NC1=O)C3)OCC21CCNCC1` next
**Result** 3.9

**Query** Query `O=C1CC[C@H](N2Cc3c4c(cc(Cl)c3C2=O)C2(CCNCC2)CO4)C(=O)N1` next
**Result** 0.038

**Query** Query CN1CCC2(CC1)COc1cc3c(cc12)CN(C1CCC(=O)NC1=O)C3=O (stereo not shown) next
**Result** 0.096

**Query** Query `O=C1CC[C@H](N2Cc3c(ccc4c3OCC43CCNCC3)C2=O)C(=O)N1` next
**Result** 0.055

**Query** Query O=C1CCC(N2Cc3c(ccc4c3OCC43CCNC3)C2=O)C(=O)N1 (stereo not shown) next
**Result** 0.21

**Query** Query O=C1CCC(N2Cc3cc4c(cc3C2=O)CCOC42CCNCC2)C(=O)N1 (stereo not shown) next
**Result** 0.27

**Query** Query `COc1cc2c(c3c1C(=O)N([C@H]1CCC(=O)NC1=O)C3)OCC21CCNCC1` next
**Result** 0.17

**Query** Query CC(=O)N1CCC2(CC1)OCCc1cc3c(cc12)CN(C1CCC(=O)NC1=O)C3=O (stereo not shown) next
**Result** 3

**Query** Query `Cc1cc2c(c3c1C(=O)N([C@H]1CCC(=O)NC1=O)C3)OCC21CCNCC1` next
**Result** 0.18

**Query** Query O=C1CCC(N2Cc3c(ccc4c3OCC43CCCNCC3)C2=O)C(=O)N1 (stereo not shown) next
**Result** 0.75

**Query** Query CC(C)(C)OC(=O)N1CCC2(CC1)COc1cc3c(cc12)CN(C1CCC(=O)NC1=O)C3=O (stereo not shown) next
**Result** 0.29

**Query** Query O=C1CCC(N2Cc3cc4c(cc3C2=O)OCC42CCNCC2)C(=O)N1 (stereo not shown) next
**Result** 0.94

**Query** Query O=C1CCC(N2Cc3c(ccc4c3OCC43CCNCC3(F)F)C2=O)C(=O)N1 (stereo not shown) next
**Result** 0.23

###

Target: GST-tagged wild-type human CRBN protein (Homo sapiens, UniProt Q96SW2)
value-kind: IC50 (nM)
# number only, unit nM dropped from output

**Query** So what does the record say about IC50 for O=C1CCC(N2Cc3c(ccc4c3OCC43CCNCC3)C2=O)C(=O)N1 (stereo not shown) ?
**Result** 1000

###

Molecular target: P300 (Homo sapiens, UniProt Q09472)
Construct: endogenous in cells; host or cells: 22Rv1
Experiment: P300 degradation, western blot, 22Rv1
Assay type: cell-based
Conditions: 22Rv1, 5 h
Procedure: WesternT Blot Analysis. Western blot analysis was performed essentially as described previously. […] The blots were scanned, and the band intensities were quantified using GelQuant.NET software provided by biochemlabsolutions.com. […]
value-kind: P300 Degradation DCmax

* CC(=O)N1CCc2c(c(N3CCCc4cc(-c5cnn(C)c5)c(C(F)F)cc43)nn2[C@H]2CC[C@H](CN3CCC4(CC3)COc3c4ccc4c3CN([C@H]3CCC(=O)NC3=O)C4=O)CC2)C1 | A (A (≥90%))
* CC(=O)N1CCc2c(c(N3CCCc4cc(-c5cnn(C)c5)c(C(F)F)cc43)nn2C2CCC(N3CCC4(CC3)COc3c4ccc4c3CN([C@H]3CCC(=O)NC3=O)C4=O)CC2)C1 (stereo partly drawn) | A (A (≥90%))
* CC(=O)N1CCc2c(c(N3CCCc4cc(-c5cnn(C)c5)c(C(F)F)cc43)nn2C2CCN(C(=O)CN3CCC4(CC3)COc3c4ccc4c3CN([C@H]3CCC(=O)NC3=O)C4=O)CC2)C1 | A (A (≥90%))

###

Target: P300 (Homo sapiens, UniProt Q09472)
Construct: endogenous in cells; host or cells: 22Rv1
Test: P300 degradation, western blot, 22Rv1
Type: cell-based
Conditions: 22Rv1, 5 h
Could you please report measured DC50 for the items listed next?

**Query** So what does the record say about DC50 for `CC(=O)N1CCc2c(c(N3CCCc4cc(-c5cnn(C)c5)c(C(F)F)cc43)nn2[C@H]2CC[C@@H](C(=O)N3CCC4(CC3)COc3c4ccc4c3CN([C@H]3CCC(=O)NC3=O)C4=O)CC2)C1` ?
**Result** 0.1 to 1 nM

**Query** Query `CC(=O)N1CCc2c(c(N3CCCc4cc(-c5cnn(C)c5)c(C(F)F)cc43)nn2C2CCN(C(=O)CN3CCC4(CC3)COc3c4ccc4c3CN([C@H]3CCC(=O)NC3=O)C4=O)CC2)C1` next
**Result** < 0.1 nM

**Query** Query `CC(=O)N1CCc2c(c(N3CCCc4cc(-c5cnn(C)c5)c(C(F)F)cc43)nn2[C@H]2CC[C@H](CN3CCC4(CC3)COc3c4ccc4c3CN([C@H]3CCC(=O)NC3=O)C4=O)CC2)C1` next
**Result** < 0.1 nM
